IC50: recorded values
system_name: wild type NTRK1 enzyme (Homo sapiens, UniProt P04629)
Construct: purchased BPS Bioscience 40280
Sequence (P04629 440-796 limits assumed): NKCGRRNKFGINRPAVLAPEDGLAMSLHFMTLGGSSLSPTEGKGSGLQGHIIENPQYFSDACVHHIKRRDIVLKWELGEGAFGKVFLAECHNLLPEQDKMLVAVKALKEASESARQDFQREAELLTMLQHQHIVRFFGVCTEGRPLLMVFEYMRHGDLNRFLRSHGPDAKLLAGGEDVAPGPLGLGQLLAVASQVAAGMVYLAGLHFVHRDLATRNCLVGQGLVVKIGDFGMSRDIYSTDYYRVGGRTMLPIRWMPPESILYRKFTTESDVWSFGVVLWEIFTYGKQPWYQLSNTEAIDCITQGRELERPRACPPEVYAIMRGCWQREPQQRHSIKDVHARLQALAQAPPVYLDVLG
method_description: NTRK1 Wild Type Assay at 1 mM ATP
Type: biochemical
setup_conditions: 1 mM ATP; read-out: Enz NTRK1 IC50

Known results for molecules:
>>> df
                                   molecule                               system_name  observed_measurement
0  CN(Cc1cccnc1Cl)C(=O)c1n[nH]c2ncnc(N[C@@H]3CC[C@@H](O)[C@H]3O)c12  wild type NTRK1 enzyme (Homo sapiens, UniProt P04629)        100 to 1000 nM
1  O=C(c1n[nH]c2ncnc(N[C@@H]3COCC[C@H]3O)c12)N1C[C@@H](F)C[C@@H]1c1cc(F)ccc1F  wild type NTRK1 enzyme (Homo sapiens, UniProt P04629)               < 10 nM
2  O=C(c1n[nH]c2ncnc(N[C@H]3[C@H](O)[C@H](O)[C@@H]4C[C@@H]43)c12)N1C[C@@H](F)C[C@@H]1c1ccccc1  wild type NTRK1 enzyme (Homo sapiens, UniProt P04629)          10 to 100 nM
3  O=C(c1n[nH]c2ncnc(N[C@@H]3CCC[C@@H](O)[C@H]3O)c12)N1C[C@@H](F)C[C@@H]1c1cc(F)cc(F)c1F  wild type NTRK1 enzyme (Homo sapiens, UniProt P04629)               < 10 nM
4  O=C(c1n[nH]c2ncnc(N[C@@H]3C=C[C@@H](O)[C@H]3O)c12)N1C[C@@H](F)C[C@@H]1c1cc(F)cc(Cl)c1  wild type NTRK1 enzyme (Homo sapiens, UniProt P04629)               < 10 nM
5  O=C(NCc1cc(F)ccc1F)c1n[nH]c2ncnc(NC3CC(F)CC3O)c12 (stereo not drawn) [Compound 14]  wild type NTRK1 enzyme (Homo sapiens, UniProt P04629)        100 to 1000 nM
6  O=C(NCc1cc(F)ccc1F)c1n[nH]c2ncnc(N[C@@H]3COCC[C@H]3O)c12  wild type NTRK1 enzyme (Homo sapiens, UniProt P04629)          10 to 100 nM
7  O=C(c1n[nH]c2ncnc(NC3CC(F)CC3O)c12)N1CC(F)CC1c1cc(F)cc(F)c1F (stereo not drawn)  wild type NTRK1 enzyme (Homo sapiens, UniProt P04629)               < 10 nM
8  CN(Cc1cc(F)cnc1Cl)C(=O)c1n[nH]c2ncnc(N[C@@H]3CC[C@@H](O)[C@H]3O)c12  wild type NTRK1 enzyme (Homo sapiens, UniProt P04629)          10 to 100 nM
9  COc1c(F)cc(F)cc1C1CC(F)CN1C(=O)c1n[nH]c2ncnc(NC3CCOCC3O)c12 (stereo not drawn)  wild type NTRK1 enzyme (Homo sapiens, UniProt P04629)               < 10 nM

Observed IC50 on wild type NTRK1 enzyme (Homo sapiens, UniProt P04629), entry CN(Cc1cc(F)cc(Cl)c1F)C(=O)c1n[nH]c2ncnc(N[C@@H]3CC[C@@H](O)[C@H]3O)c12 , equals 10 to 100 nM

Reading of IC50 for N#Cc1cc(F)cc(CNC(=O)c2n[nH]c3ncnc(N[C@@H]4CC[C@@H](O)[C@H]4O)c23)c1 with wild type NTRK1 enzyme (Homo sapiens, UniProt P04629): 100 to 1000 nM

Per the reported wild type NTRK1 enzyme (Homo sapiens, UniProt P04629) data, CN(Cc1cc(F)cc(C#N)c1)C(=O)c1n[nH]c2ncnc(NC3CCC(O)C3O)c12 (stereo not drawn) has IC50 of 10 to 100 nM

CN(Cc1cccc(Cl)c1)C(=O)c1n[nH]c2ncnc(N[C@@H]3CC[C@@H](O)[C@H]3O)c12 tested on wild type NTRK1 enzyme (Homo sapiens, UniProt P04629) gave IC50: 10 to 100 nM

Entry O=C(NCc1cc(F)cc(Cl)c1)c1n[nH]c2ncnc(NC3CCC(O)C3O)c12 (stereo not drawn) , tested on wild type NTRK1 enzyme (Homo sapiens, UniProt P04629), has a reported IC50 of 100 to 1000 nM

---

Tested on: KM12 wild type colon carcinoma cell line harboring the TPM3-NTRK1 fusion protein
method_description: NTRK wild type cellular assay (CellTiter-Glo growth inhibition)
Type: cell-based
setup_conditions: Homo sapiens, KM12, 72 h, 72 hr, CellTiter-Glo; read-out: KM12 (WT) IC50
pIC50: −log10 of the molar value.
value_type: pIC50

In [3]: df
Out[3]:
                                   compound                               system_name  observed_measurement
0  COc1c(F)cc(F)cc1[C@H]1C[C@H](F)CN1C(=O)c1n[nH]c2ncnc(N[C@@H]3COC[C@@H](O)[C@H]3O)c12  KM12 wild type colon carcinoma cell line harboring the TPM3-NTRK1 fusion protein                > 8.00
1  CN(Cc1cc(Cl)ccc1C#N)C(=O)c1n[nH]c2ncnc(N[C@@H]3CC[C@@H](O)[C@H]3O)c12  KM12 wild type colon carcinoma cell line harboring the TPM3-NTRK1 fusion protein          7.00 to 8.00
2  O=C(NCc1cc(F)ccc1F)c1n[nH]c2ncnc(NC3CC(O)CC3O)c12 (stereo not shown)  KM12 wild type colon carcinoma cell line harboring the TPM3-NTRK1 fusion protein          6.00 to 7.00

Read the next record carefully.
The compound listed as O=C(NCc1cc(F)ccc1F)c1n[nH]c2ncnc(N[C@H]3[C@H](O)[C@H](O)[C@@H]4C[C@@H]43)c12 has a reported pIC50 of 7.00 to 8.00

---

Tested on: KM12 wild type colon carcinoma cell line harboring the TPM3-NTRK1 fusion protein
method_description: NTRK wild type cellular assay (CellTiter-Glo growth inhibition)
Assay type: cell-based
setup_conditions: Homo sapiens, KM12, 72 h, 72 hr, CellTiter-Glo; read-out: KM12 (WT) IC50
pIC50: −log10 of the molar value.
// reported pIC50 for each item listed

Worked examples follow.
>>> print(df.to_string())
                                   compound                               system_name  observed_measurement
0  CS(=O)(=O)C1CC(O)C(Nc2ncnc3[nH]nc(C(=O)N4CC(F)CC4c4cc(F)ccc4F)c23)C1 (stereo not shown)  KM12 wild type colon carcinoma cell line harboring the TPM3-NTRK1 fusion protein                > 8.00
1  O=C(c1n[nH]c2ncnc(N[C@@H]3CCC[C@@H](O)[C@H]3O)c12)N1C[C@@H](F)C[C@@H]1c1cc(F)ccc1F  KM12 wild type colon carcinoma cell line harboring the TPM3-NTRK1 fusion protein                > 8.00
2  O=C(NC(CO)c1cc(F)ccc1F)c1n[nH]c2ncnc(NC3CC(F)CC3O)c12 (stereo not shown)  KM12 wild type colon carcinoma cell line harboring the TPM3-NTRK1 fusion protein          6.00 to 7.00
3  CN(Cc1cccc(F)c1)C(=O)c1n[nH]c2ncnc(N[C@@H]3CC[C@@H](O)[C@H]3O)c12  KM12 wild type colon carcinoma cell line harboring the TPM3-NTRK1 fusion protein          7.00 to 8.00

# pIC50 of CN(Cc1cncc(F)c1)C(=O)c1n[nH]c2ncnc(N[C@@H]3CC[C@@H](O)[C@H]3O)c12 = 6.00 to 7.00

Entry O=C(c1n[nH]c2ncnc(N[C@H]3[C@H](O)[C@H](O)[C@@H]4C[C@@H]43)c12)N1CC(F)(F)C[C@@H]1c1cc(F)ccc1F , pIC50 reported as 7.00 to 8.00

Item: O=C(c1n[nH]c2ncnc(N[C@@H]3CCOC[C@H]3O)c12)N1C[C@@H](F)C[C@@H]1c1cc(F)ccc1Cl | pIC50: > 8.00

---

system_name: wild type NTRK1 enzyme (Homo sapiens)
Construct: purchased BPS Bioscience 40280
method_description: NTRK1 Wild Type Assay at 1 mM ATP
Type: biochemical
setup_conditions: 1 mM ATP; read-out: Enz NTRK1 IC50
Experimental: NTRK1 Wild Type Assay at 1 mM ATP The reaction was stopped by the addition of 70 μL of Stop buffer (100 mM HEPES pH 7.5, 0.015% Brij 35, 35 mM EDTA and 0.2% of Coating Reagent 3 (Caliper Lifesciences)). The plate was then read on a Caliper EZReader 2 (protocol settings: −1.7 psi, upstream voltage −500, downstream voltage −3000, post sample sip 35s).
value_type: IC50

Below, 5 molecules whose answers are already recorded.
>>> df
                                   molecule  observed_measurement
0  O=C(c1n[nH]c2ncnc(NC3CCCC(O)C3O)c12)N1CC(F)CC1c1cccc(F)c1F (centres unmarked)             < 0.01 µM
1  O=C(c1n[nH]c2ncnc(NC3CCOCC3O)c12)N1CC(F)CC1c1cc(F)cc(Cl)c1 (centres unmarked)             < 0.01 µM
2  O=C(c1n[nH]c2ncnc(N[C@@H]3CC[C@@H](O)[C@H]3O)c12)N1CC(F)(F)C[C@@H]1c1cc(F)cc(F)c1        0.01 to 0.1 µM
3  O=C(NCc1cc(F)ccc1F)c1n[nH]c2ncnc(N[C@@H]3CC[C@@H](F)[C@H]3O)c12 (relative stereo)                > 1 µM
4  CN(Cc1cc(F)ccc1C(F)(F)F)C(=O)c1n[nH]c2ncnc(NC3COCC(O)C3O)c12 (centres unmarked)             < 0.01 µM

O=C(c1n[nH]c2ncnc(N[C@@H]3CC[C@@H](O)[C@H]3O)c12)N1C[C@@H](F)C[C@@H]1c1cccc(F)c1F has a reported IC50 of < 0.01 µM

IC50 recorded for this molecule, N#C[C@H]1C[C@H](c2cc(F)ccc2F)N(C(=O)c2n[nH]c3ncnc(N[C@@H]4COCC[C@H]4O)c23)C1 , is 0.01 to 0.1 µM

The value of IC50 measured for the molecule O=C(c1n[nH]c2ncnc(N[C@@H]3C[C@@H](C(F)F)C[C@H]3O)c12)N1C[C@@H](F)C[C@@H]1c1cncc(F)c1 turned out to be < 0.01 µM

Form: molecule = CN(Cc1cncc(F)c1)C(=O)c1n[nH]c2ncnc(N[C@@H]3CC[C@@H](O)[C@H]3O)c12 ; IC50 = 0.1 to 1 µM

The molecule listed as O=C(NCc1cc(F)ccc1Cl)c1n[nH]c2ncnc(N[C@@H]3COCC[C@H]3O)c12 shows IC50 equal to 0.01 to 0.1 µM
